Test system: U2OS
protocol.text: Multiplex assay against U2OS
Format: toxicity, cell-based
condition: human, 24 h, 10 µM, compound concentration 10 uM, replicate 1
Total Cell Count: recorded values
Please give only the number in your answer, with no unit.

Reference set, count: 5
[
  {
    "molecule": "C=CC(=O)Nc1ccc2[nH]c(=O)n(C3CCN(Cc4ccc(-c5nc6cc[nH]c(=O)c6cc5-c5ccccc5)cc4)CC3)c2c1",
    "tested.system": "U2OS",
    "reported.value": 238
  },
  {
    "molecule": "O=c1cc(N2CCOCC2)oc2c(-c3cccc4c3sc3ccccc34)cccc12",
    "tested.system": "U2OS",
    "reported.value": 242
  },
  {
    "molecule": "O=C(c1cc2c(cc1F)OC(c1ccc(F)cc1)(c1ccc(Cl)cc1Cl)O2)N1CCOCC1 (stereo not drawn)",
    "tested.system": "U2OS",
    "reported.value": 137
  },
  {
    "molecule": "Cc1nc(N2CC[C@H](O)C2)ncc1-c1cc(C(F)(F)F)cc2[nH]ncc12",
    "tested.system": "U2OS",
    "reported.value": 173
  },
  {
    "molecule": "CC(C)Oc1ccccc1C(=O)Nc1ccccc1C(=O)Nc1cccc(S(=O)(=O)C(F)(F)F)c1",
    "tested.system": "U2OS",
    "reported.value": 148
  }
]

Task: Test system U2OS; read-out Total Cell Count; what value for `CCCSc1nc(N[C@@H]2C[C@H]2c2ccc(F)c(F)c2)c2nnn([C@@H]3C[C@H](OCCO)[C@@H](O)[C@H]3O)c2n1` ?
Result: 155

Task: Field: Total Cell Count (U2OS). Entry: `COC(=O)C1=C(C)NC(C)=C(C(=O)OCCCN2CCC(c3ccccc3)(c3ccccc3)CC2)[C@H]1c1cccc([N+](=O)[O-])c1`
Result: 111

Task: Find Total Cell Count (U2OS) for the entry `CC(C)CC(=O)Nc1[nH]nc2c1CN(C(=O)C1CCN(C)CC1)C2(C)C`
Result: 287
